tested on: T-47D cells; assay: Inhibition of cell proliferation in T-47D cells (CCK-8, 6 days); type: cell-based; conditions: 6 days of treatment, Table 3
pIC50: −log10 of the molar value.
Readout name: pIC50

Recorded results for 3 molecules are shown here.
O=C1CCC(N2C(=O)c3cc4c(cc3C2=O)OC2(CC4)CCN(C3CCC4(CC3)CCN(c3ccc(C5c6ccc(O)cc6CCC5c5ccccc5)cc3)CC4)CC2)C(=O)N1 (stereo not drawn) | 6.90
O=C1CCC(N2Cc3ccc4c(c3C2=O)OCC42CCN(C(=O)CN3CCC4(CCN(c5ccc([C@@H]6c7ccc(O)cc7CC[C@@H]6c6ccccc6)cc5)CC4)C3)CC2)C(=O)N1 (stereo partly drawn) | 8.87
O=C1CCC(N2Cc3cc4c(cc3C2=O)OC2(CC4)CCN(CC3CCC4(CC3)CCN(c3ccc([C@@H]5c6ccc(O)cc6CC[C@@H]5c5ccccc5)cc3)CC4)CC2)C(=O)N1 (stereo partly drawn) | 7.89

a. O=C1CCC(N2C(=O)c3cc4c(cc3C2=O)C2(CCN(CC3CCN(c5ccc(C6c7ccc(O)cc7CCC6c6ccccc6)cc5)CC3)CC2)CO4)C(=O)N1 (stereo not drawn)
b. CC1CN(C(=O)C2CCN(c3ccc(C4c5ccc(O)cc5CCC4c4ccccc4)cc3)CC2)CCC1N1CCC2(CC1)COc1c2ccc2c1CN(C1CCC(=O)NC1=O)C2=O (stereo not drawn)
Exam item: Endpoint returns whichever of a and b has the numerically higher pIC50. Write down the label attached to your selection.
Marked response: b
(b: 8.98, a: 6.98)

1. C[C@@H]1Cc2c(ccc3[nH]ncc23)[C@@H](c2c(F)cc(N3CCC4(CCN(CC(=O)N5CCC6(CC5)COc5c6ccc6c5CN(C5CCC(=O)NC5=O)C6=O)CC4)CC3)cc2F)N1CC(F)F (stereo partly drawn)
2. O=C1CCC(N2Cc3c(ccc4c3OCC43CCN(C(=O)CC4CCN(C(=O)C5CCN(c6ccc([C@@H]7c8ccc(O)cc8CC[C@@H]7c7ccccc7)cc6)CC5)CC4)CC3)C2=O)C(=O)N1 (stereo partly drawn)
Exam item: Form field 'greater pIC50' accepts 1 or 2 ; which applies? Mark your answer with the label of the selected entry.
Marked response: 1

###

Target: ERα (Homo sapiens, UniProt P03372)
Sequence (P03372 1-595): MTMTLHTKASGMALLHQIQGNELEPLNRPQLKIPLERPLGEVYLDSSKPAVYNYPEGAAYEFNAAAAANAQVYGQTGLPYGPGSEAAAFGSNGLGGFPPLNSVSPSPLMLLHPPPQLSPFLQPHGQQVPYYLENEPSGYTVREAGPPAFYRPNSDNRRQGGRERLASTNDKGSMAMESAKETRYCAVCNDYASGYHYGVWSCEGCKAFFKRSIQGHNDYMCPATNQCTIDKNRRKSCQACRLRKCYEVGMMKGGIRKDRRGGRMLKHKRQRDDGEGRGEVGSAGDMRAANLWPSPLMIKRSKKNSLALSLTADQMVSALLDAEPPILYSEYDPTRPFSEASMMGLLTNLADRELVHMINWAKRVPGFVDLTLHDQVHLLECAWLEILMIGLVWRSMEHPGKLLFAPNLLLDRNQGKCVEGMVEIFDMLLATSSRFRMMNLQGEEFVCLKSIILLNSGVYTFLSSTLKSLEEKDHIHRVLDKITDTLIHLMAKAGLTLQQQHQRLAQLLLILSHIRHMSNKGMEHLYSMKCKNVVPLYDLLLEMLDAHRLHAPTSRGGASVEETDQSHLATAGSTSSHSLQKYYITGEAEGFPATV
Test: Degradation of ERα in T-47D cells (immunoblotting, 4 h)
Assay type: cell-based
Set-up: host or cells: T-47D
Conditions: 10nM compound
Readout name: Degradation rate (%) of ERα in T-47D cells

C[C@@H]1Cc2c(ccc3[nH]ncc23)[C@@H](c2c(F)cc(N3CCC(C(=O)N4CCC(N5CCC6(CC5)COc5c6ccc6c5CN(C5CCC(=O)NC5=O)C6=O)CC4)CC3)cc2F)N1CC(F)F (stereo partly shown) | 63
C[C@@H]1Cc2c([nH]c3ccccc23)[C@@H](c2c(F)cc(N3CC4(CCC(N5CCC6(CC5)COc5c6ccc6c5CN(C5CCC(=O)NC5=O)C6=O)CC4)C3)cc2F)N1CC(F)F (stereo partly shown) | 72
O=C1CCC(N2Cc3c(ccc4c3OCC43CCN(C4CC5CC4CN5C(=O)C4CCN(c5ccc([C@@H]6c7ccc(O)cc7CC[C@@H]6c6ccccc6)cc5)CC4)CC3)C2=O)C(=O)N1 (stereo partly shown) [D2] | 68
CN(C(=O)CN1CCC2(CC1)COc1c2ccc2c1C(=O)N(C1CCC(=O)NC1=O)C2=O)C1CCC2(CC1)CN(c1ccc([C@@H]3c4ccc(O)cc4CC[C@@H]3c3ccccc3)cc1)C2 (stereo partly shown) | 66
C[C@@H]1Cc2c(ccc3[nH]ncc23)C(c2ccc(N3CCC4(CC3)CC(N3CC[C@@H](N5CCC6(CC5)COc5c6ccc6c5CN(C5CCC(=O)NC5=O)C6=O)[C@@H](F)C3)C4)cn2)N1CC(F)(F)F (stereo partly shown) | 84
C[C@@H]1Cc2c(ccc3[nH]ncc23)[C@@H](c2ccc(N3CCN(C[C@H]4CC[C@H](C(=O)N5CCC6(CC5)COc5c6ccc6c5CN(C5CCC(=O)NC5=O)C6=O)CC4)CC3)cn2)N1CC(F)(F)F (stereo partly shown) | 77
O=C1CCC(N2Cc3c(ccc4c3OCC43CCN(CCN4CCC5(CCN(c6ccc([C@@H]7c8ccc(O)cc8CC[C@@H]7c7ccccc7)cc6)CC5)C4)CC3)C2=O)C(=O)N1 (stereo partly shown) | 85
O=C1CCC(N2Cc3c(ccc4c3OCC43CCN(C4CCN(C(=O)C5CCN(c6ccc([C@@H]7c8ccc(O)cc8CC[C@@H]7c7ccccc7)cc6)CC5)CC4F)CC3)C2=O)C(=O)N1 (stereo partly shown) | 73

a. O=C1CCC(N2Cc3c(ccc4c3OCC43CCN(CC(=O)N4CCC5(CCC(C#Cc6ccc([C@@H]7c8ccc(O)cc8CC[C@@H]7c7ccccc7)cc6)CC5)CC4)CC3)C2=O)C(=O)N1 (stereo partly shown)
b. O=C1CCC(N2C(=O)c3cc4c(cc3C2=O)OC2(CCN(C3CCC5(CC3)CCN(c3ccc(C6c7ccc(O)cc7CCC6c6ccccc6)cc3)CC5)CC2)C4)C(=O)N1 (stereo not shown)
Exam item: Parameter metric = Degradation rate (%) of ERα in T-47D cells. Return the lower-valued option from a and b . Use the label to indicate which entry you chose.
Marked response: b

###

Readings of Degradation rates of the AR protein in LNCAP cells, 10 nM (%) for the listed compounds
Biological target: AR protein (Homo sapiens, UniProt P10275, T878A)
Construct: host or cells: LNCaP FGC
Sequence (P10275 1-920 T878A): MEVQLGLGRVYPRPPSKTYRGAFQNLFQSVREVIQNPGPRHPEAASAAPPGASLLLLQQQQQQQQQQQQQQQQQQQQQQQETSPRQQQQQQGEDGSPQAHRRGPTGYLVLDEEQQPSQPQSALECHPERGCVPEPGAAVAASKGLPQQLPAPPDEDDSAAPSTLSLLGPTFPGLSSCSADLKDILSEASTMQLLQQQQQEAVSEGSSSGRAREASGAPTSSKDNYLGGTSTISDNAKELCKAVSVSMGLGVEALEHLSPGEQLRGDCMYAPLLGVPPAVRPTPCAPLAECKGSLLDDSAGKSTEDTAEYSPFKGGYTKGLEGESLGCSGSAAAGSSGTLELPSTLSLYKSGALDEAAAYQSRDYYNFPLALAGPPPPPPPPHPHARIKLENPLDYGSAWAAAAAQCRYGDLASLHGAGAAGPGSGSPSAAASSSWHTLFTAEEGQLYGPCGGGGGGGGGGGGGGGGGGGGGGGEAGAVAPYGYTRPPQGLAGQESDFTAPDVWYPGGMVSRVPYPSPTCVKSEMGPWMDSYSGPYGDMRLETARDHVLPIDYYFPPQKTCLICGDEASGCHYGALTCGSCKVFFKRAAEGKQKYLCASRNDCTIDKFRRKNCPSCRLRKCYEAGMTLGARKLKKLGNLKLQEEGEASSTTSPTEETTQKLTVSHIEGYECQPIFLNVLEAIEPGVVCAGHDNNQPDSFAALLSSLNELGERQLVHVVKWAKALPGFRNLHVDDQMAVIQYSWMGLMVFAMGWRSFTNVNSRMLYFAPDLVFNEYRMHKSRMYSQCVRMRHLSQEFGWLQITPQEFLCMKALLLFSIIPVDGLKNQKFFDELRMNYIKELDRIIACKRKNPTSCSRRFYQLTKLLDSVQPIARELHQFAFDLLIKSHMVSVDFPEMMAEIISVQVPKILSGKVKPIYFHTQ
Experiment: Degradation of AR protein in LNCAP cells (Western blot, 8 h)
Assay type: cell-based
Conditions: LNCaP FGC cells, 10 nM
Numbers only; they are read as %.

COc1cc(O[C@H]2C(C)(C)[C@H](NC(=O)c3ccc(N4CCC(CN5CCC6(CC5)COc5c6ccc6c5C(=O)N(C5CCC(=O)NC5=O)C6)(OC)CC4)cc3)C2(C)C)ccc1C#N (relative stereo) | 62
C[C@H]1CC2(CCN(c3ccc(N4CCC(CN5CCC6(CC5)COc5c6ccc6c5C(=O)N(C5CCC(=O)NC5=O)C6)CC4)cc3)CC2)CN1c1ccc(C#N)c(Cl)c1 (some centres unmarked) | 55
C[C@H]1CC2(CCN(c3ccc(N4CCC(CN5CCC6(CC5)COc5cc7c(cc56)CN(C5CCC(=O)NC5=O)C7=O)CC4)cc3)CC2)CN1c1ccc(C#N)c(Cl)c1 (some centres unmarked) | 20
COc1cc(O[C@H]2CC[C@H](NC(=O)c3ccc(N4CCC(CN5CCC6(CC5)COc5c6ccc6c5C(=O)N(C5CCC(=O)NC5=O)C6)(OC)CC4)nn3)CC2)ccc1C#N (relative stereo) | 52

Please examine the following record next.
Per the records, this compound ( COc1cc(O[C@H]2CC[C@H](NC(=O)c3ccc(N4CCC(CN5CCC6(CC5)COc5c6ccc6c5C(=O)N(C5CCC(=O)NC5=O)C6)CC4)nn3)CC2)ccc1C#N (relative stereo) ) has Degradation rates of the AR protein in LNCAP cells, 10 nM (%) equal to 69
